# System: SF-268 CNS
# Protocol text: NCI-60 one-dose screen, 48 h (100 = growth as untreated, 0 = no growth, -100 = all killed)
# Stated conditions: 10 µM
# Method: Cells are grown in 96 well plates and exposed to the test compound for 48 hours. Compounds are tested at a single concentration, which is 10^-5 M for most compounds. The reported endpoint is percent growth (GI% or GIPRCNT), where numbers from 0 - 100% represent growth inhibition, and numbers from -100% - 0 represent cell death. For example, a value of 40 represents 60% growth inhibition. A value of 0 means no net growth occurred over the course of the experiment. […]
About 83,000 compounds went through this panel and 20% of them were active in at least one assay; those are over-represented in the sample as a whole.
Threshold-based label: growth under 80% gives rule met, growth not under 80% gives rule not met.

{"columns": ["Compound", "Study system", "Answer label"],
 "data": [
  ["CCCn1c(=O)c2c(nc(-c3cccc(OCCCCl)c3)n2C)n(CCC)c1=O", "SF-268 CNS", "rule met"],
  ["O=C(N/N=C\\c1cc(Cl)ccc1O)c1ccncc1", "SF-268 CNS", "rule met"],
  ["Cc1cn(C(=O)/C(Cl)=C(/Cl)C(=O)O)c2ccccc12", "SF-268 CNS", "rule not met"],
  ["Cc1cc(C(C)(C)CC(C)(C)C)ccc1OCCOCC[N+](C)(C)Cc1ccccc1", "SF-268 CNS", "rule met"],
  ["COc1ccc2c(c1)/C(=C/c1cc(OC)c(OC)c(OC)c1)C(=O)N2C", "SF-268 CNS", "rule met"],
  ["C[C@H](NC(=O)[C@@H]1CSSC[C@@H](NC(=O)Cc2nc3ccccc3cc2O)C(=O)NCC(=O)N1C)c1ccccc1", "SF-268 CNS", "rule not met"],
  ["COc1ccc(-c2ccccc2)cc1C(=O)c1ccc(-c2ccccc2)cc1", "SF-268 CNS", "rule not met"],
  ["CCOC(=O)CNC(=O)Nc1ccc(Oc2ccc(NC(=O)NCC(=O)OCC)cc2)cc1", "SF-268 CNS", "rule not met"],
  ["COc1cc(/C=C/C(=O)c2cc(-c3ccc(C(F)(F)F)cc3)ccc2O)cc(OC)c1OC", "SF-268 CNS", "rule met"],
  ["CC(Oc1ccc(Cl)cc1)c1ccccc1 (stereo unspecified)", "SF-268 CNS", "rule not met"],
  ["COc1ccc(-c2nnc(COc3ccc(NC(=O)Nc4cccc(C(F)(F)F)c4)cc3F)o2)cc1", "SF-268 CNS", "rule met"],
  ["CCc1c(C(=O)NCc2c(O)ccc3cccc(O)c23)[nH]c(C)c1C(C)=O", "SF-268 CNS", "rule met"],
  ["C/C=C\\COc1cc(C)c(Cl)cc1Cl", "SF-268 CNS", "rule not met"],
  ["C=CCn1c(C)nc2cc(Nc3nc(Nc4ccc5nc(C)n(CC=C)c5c4)c4ccccc4n3)ccc21", "SF-268 CNS", "rule met"],
  ["COc1ccc(-c2nc(NC(=O)CS(=O)(=O)c3ccc(F)cc3)sc2C)cc1", "SF-268 CNS", "rule met"],
  ["COc1cc(C(c2c[nH]c3ccccc23)N2CCCC2)ccc1OCc1ccccc1 (stereo unspecified)", "SF-268 CNS", "rule met"],
  ["CCOc1ccc2c(c1)CC[C@@H]1[C@@H]2CC[C@]2(C)[C@@H](O)[C@@H](O)C[C@@H]12", "SF-268 CNS", "rule not met"],
  ["CCCc1ccnc(NS(=O)(=O)c2ccc(N)cc2)n1", "SF-268 CNS", "rule not met"],
  ["COC(=O)[C@]12CC[C@@H](C)[C@H](C)[C@@H]1C1=CC[C@@H]3[C@@]4(C)CC(=O)[C@H](O)[C@@](C)(CO)[C@@H]4C(=O)C[C@@]3(C)[C@]1(C)CC2", "SF-268 CNS", "rule met"],
  ["[O-]c1c[n+](-c2ccc(Cl)cc2)no1", "SF-268 CNS", "rule not met"]
]}
